Reference source: PubChem BioAssay

test: P. aeruginosa biofilm formation inhibitors, primary screen, PAO1 strain, BacTiter-Glo luminescence, LB-PBS (AID 1144); conditions: 12 h, higher = more signal
parameter: z-score
Enter the number alone.

As a guide, the following entries are already answered.
- compound: "O=C1[C@H]2CCn3c(=O)n(Cc4cc5c(cc4Cl)OCO5)c(=O)n3[C@H]2[C@H](O)[C@@H]2O[C@H]12"
  parameter: "z-score"
  number: 0.529
- compound: "CN1CCc2nc(-c3ccccc3)c(-c3ccccc3)cc2C1"
  parameter: "z-score"
  number: 0.99
- compound: "CCN1C(=O)[C@H]2[C@H]3[C@H](O)[C@H](O)CC(=NO[C@H](C)c4cn([C@H](CO)Cc5ccccc5)nn4)[C@@H]3CC[C@H]2C1=O"
  parameter: "z-score"
  number: 1.05
- compound: "CC(CCN1CCc2nc(-c3ccccc3)c(-c3ccccc3)cc2C1)=NO[C@H](C)c1cn([C@H](CO)Cc2ccccc2)nn1"
  parameter: "z-score"
  number: -0.413
- compound: "O=C1[C@H]2[C@H]3[C@H](O)[C@H](O)CC(=NO[C@@H]4O[C@H](CO)[C@@H](O)[C@H](O)[C@H]4O)[C@@H]3CC[C@H]2C(=O)N1c1cccc(Oc2ccccc2)c1"
  parameter: "z-score"
  number: -0.774

Data request: Any idea what its z-score is? The compound is `CC(C)=CCCC(C)=CCON=C1C[C@@H](O)[C@@H](O)[C@@H]2[C@@H]3C(=O)N(Cc4ccc5c(c4)OCO5)C(=O)[C@@H]3CC[C@@H]12`
Data returned: 0.73

Data request: Value lookup for z-score; key = `COc1ccc(COC(=O)NN=C2C[C@@H](O)[C@@H](O)[C@@H]3[C@@H]4C(=O)N([C@@H](C)c5ccccc5)C(=O)[C@@H]4CC[C@@H]23)cc1`
Data returned: -0.253

* * *

target: Torsin-1A (Homo sapiens); assay: small-molecule binders of mutant TOR1A in lysate, primary screen, cell lysate, small-molecule microarray, COS7 lysate, 635/667 nm fluorescence (AID 1150); details: COS7 hTOR1A mutant lysate, 635 nm fluorescence, higher = more signal;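 further: score pools 667 nm emission and signal to noise measuring lysate protein binding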
parameter: composite z-score
Form: value (number only, do not type unit).

- compound: "CCOC(=O)[C@H](Cc1ccccc1)NC(=O)CCC1CC(OC(=O)NCc2cccc3ccccc23)CC2(CCCC(COC(=O)NCc3ccc4c(c3)OCO4)O2)O1 (stereo not given in full)"
  composite z-score: -0.497
- compound: "CC(CCN1CCCc2nc(C)c(C)cc21)=NO[C@H](C)c1cn([C@H](CO)Cc2ccccc2)nn1"
  composite z-score: 0.25
- compound: "CO[C@@H](C1CCCCC1)[C@@H](C)[C@H](OCc1cccc(Br)c1)[C@@H](C)CO"
  composite z-score: 0.467
- compound: "CC(C)CON=C1C[C@@H](O)[C@@H](O)[C@@H]2[C@@H]3C(=O)N(Cc4ccc5c(c4)OCO5)C(=O)[C@@H]3CC[C@@H]12"
  composite z-score: 0.203
- compound: "C#CCCCON=C1C[C@@H](O)[C@@H](O)[C@@H]2[C@@H]3C(=O)N(C4CCCCC4)C(=O)[C@@H]3CC[C@@H]12"
  composite z-score: -0.336

Data request: I'm curious: which composite z-score was measured for `COC(=O)[C@@H]1CC[C@H](C)[C@@H](c2ccc(Br)cc2)N1C(=O)C(F)(F)F` tested on Torsin-1A (Homo sapiens)?
Data returned: -0.835

Data request: Item `CO[C@@H]1C=CCC(=O)N[C@@H](C)C(=O)OC[C@@H](OC)[C@H](C)C=CCC(=O)OC[C@H]1C` with Torsin-1A (Homo sapiens) - composite z-score?
Data returned: 2.21

Data request: Form field: composite z-score recorded for `C[C@H]1C=CCC(=O)OC[C@H](C)C(=O)N2CCC[C@H]2C(=O)OC1` with Torsin-1A (Homo sapiens) (enter value)
Data returned: 3.03

Data request: Param readout= composite z-score; system= Torsin-1A (Homo sapiens); entry= CCOC(=O)[C@H](CC(C)C)NC(=O)CCC1CC(OC(=O)NCc2ccc3c(c2)OCO3)CC2(CCCC(COC(=O)NCCOC)O2)O1 (stereo not given in full) ; returns value.
Data returned: 0.354

Data request: Lab note: need composite z-score for `CCOC(=O)CCN1C(=O)[C@H]2[C@H]3[C@H](O)[C@H](O)CC(=NO[C@@H]4O[C@H](CO)[C@@H](O)[C@H](O)[C@H]4O)[C@H]3CC[C@H]2C1=O` on Torsin-1A (Homo sapiens), anyone have it?
Data returned: 0.307

* * *

experiment: modulators of HCV replicon luciferase signal, primary screen, HCV replication inhibitor project, Huh7 cells, luciferase reporter (AID 1109); conditions: 48 h, higher = more signal;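 further: huh7 hepatoma cells harbouring a luciferase neomycin HCV replicon reporter; luciferase luminescence as measure of HCV replicon replication; test concentration not given here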
parameter: z-score

- molecule: "COC(=O)CC=C[C@@H](C)[C@@H](C=NOC(C)CN1CCCCc2nc(C)c(C)cc21)NS(=O)(=O)c1ccc(C)cc1 (stereo not given in full)"
  z-score: 0.0814

Data request: Give the measured z-score of `COc1ccc(O[C@H]2C=C[C@@H](c3ccccc3)O[C@@H]2CO)cc1` .
Data returned: 0.231

Data request: I'd like to know its z-score. The molecule in question is `C=CC[C@@H]1C=C[C@H](ON=C[C@@H](NS(=O)(=O)c2ccc(C)cc2)[C@H](C)C=CCC(=O)OC)[C@@H](CO)O1`
Data returned: -0.0493

Data request: Returns the measured z-score for the input molecule. Input: `CO[C@@H]1COC(=O)[C@@H]2CCCN2C(=O)[C@@H](C)COC(=O)CCC[C@H]1C`
Data returned: -0.016

Data request: I would be grateful if you could share the reported z-score for `CC(CCC(=O)OC[C@H]1O[C@H](C#Cc2ccccc2)C=C[C@@H]1Oc1ccc(C)cc1)=NO[C@@H](C)c1cc(-c2c(C)cc(C)cc2C)no1` .
Data returned: -0.824

Data request: What measured z-score goes with CCOC(=O)[C@H](CC(C)C)NC(=O)CCC1CC(OC(=O)NCCc2ccc(F)cc2)CC2(CCCC(COC(=O)NCCCN3CCCC3=O)O2)O1 (stereo not given in full) ?
Data returned: -1.2

* * *

assay: basal 3T3-L1 adipocyte mitochondrial potential changes, profiling panel, cell-based, JC-1 fluorescence, 3T3-L1 adipocytes, 24 h, 100 nL compound (AID 1168); conditions: JC-1 mitochondrial fluorescence, higher = more signal, called active from +8 up or from −8 down; further: test concentration not given here
Measured z-score of individual entries
Lab note: jot the number down without any unit.

- compound: "CCO[C@H](c1cc(OC)cc([N+](=O)[O-])c1OC)[C@H](C)[C@@H](OC)[C@H](C)C=CCC(=O)OC"
  z-score: -0.476
- compound: "CC(CCN1CCCc2nc(C)c(C)cc21)=NOC[C@@H](C)[C@H](OCc1ccccc1)C(C)C"
  z-score: -0.584
- compound: "COc1ccc(COC(=O)NN=C2C[C@@H](O)[C@@H](O)[C@@H]3[C@@H]4C(=O)N(Cc5ccc6c(c5)OCO6)C(=O)[C@@H]4CC[C@H]23)cc1"
  z-score: -0.339

Data request: Looking for the measured z-score of `CSCC[C@@H]1NC(=O)CC=C[C@@H](C)COC(=O)[C@H](C)COC1=O` , can you help?
Data returned: 0.766

Data request: Find the recorded z-score belonging to CC(C)=NOC(C)CN1CCCCc2nc(C)c(C)cc21 (stereo not given) and report it.
Data returned: -0.78

* * *

Overview of recorded z-score for various molecules
assay: MM1S cell viability effects, profiling panel, calcein-AM fluorescence, 48 h, basal (AID 1165); settings: higher = more signal;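 further: viability of MM1S multiple myeloma cells under basal unstimulated conditions; test concentration not given here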

Please review the entries below; each comes with its answer.
- molecule: "CCN1C(=O)[C@H]2[C@H]3[C@H](O)[C@H](O)CC(=NO[C@@H]4O[C@H](COC(C)=O)[C@@H](OC(C)=O)[C@H](OC(C)=O)[C@H]4OC(C)=O)[C@@H]3CC[C@H]2C1=O"
  parameter: "z-score"
  result: -1.29
- molecule: "CCCNC(=O)OC[C@H]1O[C@H](CCON=C[C@@H](NS(=O)(=O)c2ccc(C)cc2)[C@H](C)C=CCC(=O)OC)C=C[C@@H]1Oc1ccc(OC)cc1"
  parameter: "z-score"
  result: -0.0312
- molecule: "CCOC(=O)CCN1C(=O)[C@H]2[C@H]3[C@H](O)[C@H](O)CC(=NOCC=C(C)CCC=C(C)C)[C@H]3CC[C@H]2C1=O"
  parameter: "z-score"
  result: 0.345
- molecule: "CC(=O)OC[C@H]1O[C@H](CC=NOC[C@@H](O)[C@H]2O[C@@H]3OC(C)(C)O[C@@H]3[C@H]2O)C=C[C@@H]1OC(C)=O"
  parameter: "z-score"
  result: 0.494
- molecule: "CCOC(=O)[C@H](CC(C)C)NC(=O)CCC1CC(OC(=O)NCc2ccc3c(c2)OCO3)CC2(CCCC(COC(=O)NCc3ccccc3)O2)O1 (some centres not stated)"
  parameter: "z-score"
  result: -3.45

Data request: What value of measured z-score is listed for `CON=C(C)CCN1CCCc2nc(C)c(C)cc21` ?
Data returned: -1.56

Data request: Quick check: z-score of `O=C1C=C[C@@H](O)[C@@H]2[C@@H]3C(=O)N(c4cccc(Oc5ccccc5)c4)C(=O)[C@@H]3CC[C@@H]12` ?
Data returned: -1.03
